# assayExplanation: soluble on expression in E. coli; label from the status in PepcDB or PDB records
measuredProperty: soluble on expression in E. coli

constructsequence=MGSDKIHHHHHHMNKKGNTEEIIERLFSILSSEKDSIEFLKAVSEFSKFYEIDKKEQERRSSEAKSFVKMALQDFESVKILYQSKIYSLAVYHLQQAVEKYVKAYVLAFFGLSKKEMKGYVGHDSPKAFIRLLDRYKRSLELFLKSIQKIGGLDTQFLKISDEDIRKLVRIVNMSRKQIAEMDSNQIKGIINATIKIKIALENKEIKNQILGLLSKLKNEASEIKSSDPSEKFILEKLIDSVDRVLNNLETLLKLSSTFLVLYMLSIITYPHATFARYPNKTLPPEKYDENLGIVQYFNEIVKLLDEVANLLVYEI measuredresult="not soluble"
constructsequence=MSSVPSAHSEIVGALYRDHRGWLLAWLRRNVACPQRAQDLSQDTFVRLLGRDELQLPREPRAFLATIAKGLMFDYFRRAALEQAYLGELLQVPEAEQPSPEEQLLILEDLKAIDRMLGTLSSKARAAFLYNRLDGLSHGEIAERLGVSVSRVRQYLAQAVRQCYVALYGEPT measuredresult="not soluble"

Values from the DeepSol protein solubility set
